Target chain: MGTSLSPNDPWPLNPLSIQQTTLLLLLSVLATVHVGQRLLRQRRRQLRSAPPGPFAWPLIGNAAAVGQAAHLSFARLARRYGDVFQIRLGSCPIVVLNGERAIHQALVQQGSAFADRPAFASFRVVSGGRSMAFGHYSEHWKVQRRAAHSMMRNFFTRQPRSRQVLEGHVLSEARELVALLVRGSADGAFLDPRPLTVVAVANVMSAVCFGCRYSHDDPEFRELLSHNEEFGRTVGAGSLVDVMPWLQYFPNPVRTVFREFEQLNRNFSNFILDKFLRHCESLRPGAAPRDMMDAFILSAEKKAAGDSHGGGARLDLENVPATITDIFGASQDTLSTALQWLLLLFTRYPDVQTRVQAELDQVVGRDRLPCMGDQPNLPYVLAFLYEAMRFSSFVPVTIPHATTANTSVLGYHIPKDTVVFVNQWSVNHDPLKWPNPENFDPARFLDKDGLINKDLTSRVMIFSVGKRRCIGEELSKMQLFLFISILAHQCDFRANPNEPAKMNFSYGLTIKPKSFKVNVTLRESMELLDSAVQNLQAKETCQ
Listed here: items and their measured pKi.
Interpret pKi as the negative base-10 log of the concentration measured in mol/L.

Some solved cases for reference:
>  <compound>
Oc1cc(O)cc(/C=C/c2ccccc2)c1 [(E)-5-(2-phenylethenyl)-1,3-benzenediol]

>  <pKi>
7.13

$$$$
>  <compound>
Oc1ccc(/C=C/c2cc(O)cc(O)c2)cc1

>  <pKi>
6.75

$$$$
>  <compound>
Oc1cc(O)cc(/C=C/c2ccsc2)c1 [Stilbene, 16f]

>  <pKi>
5.93

$$$$

With those in mind, consider the next compound.
Task item: Could you share which pKi value was measured for Oc1cc(O)cc(/C=C/c2ccoc2)c1 [Stilbene, 15f] ?
Reply: 5.95

Cited source: BindingDB's records for doi:10.1016/j.chembiol.2007.05.004
